protocol: gradient 5% acetonitrile 3 min, to 50% in 2 min, to 85% in 15 min, held 3 min, 100 µL/min
run.parameters: column: Zorbax Extend-C18 2.1 x 50 mm; eluents: water / acetonitrile, 0.1% formic acid
Response field label takes MET when RP-LC retention time is strictly below 800 s and NOT MET in all other cases.

**Query** # TODO verify RP-LC retention time < 800 s strictly for this molecule: O=C(O)c1cc(N2CCCN(c3ncccn3)CC2)ccc1NC(=O)C1CC1
**Result** MET

**Query** # TODO verify RP-LC retention time < 800 s strictly for this molecule: O=C(CSc1ccc(-n2cccn2)nn1)NCc1ccco1
**Result** MET

**Query** # TODO verify RP-LC retention time < 800 s strictly for this molecule: O=C(NCCn1c(-c2ccncc2)nc2cccnc21)Nc1cccc(Cl)c1
**Result** MET

**Query** # TODO verify RP-LC retention time < 800 s strictly for this molecule: COc1ccc(NC(=O)c2nnc(CSCC(=O)N3CCN(c4ccccn4)CC3)s2)cc1
**Result** MET

**Query** # TODO verify RP-LC retention time < 800 s strictly for this molecule: Cc1cccc(-c2noc(C3CCCN3S(=O)(=O)c3ccc(Br)cc3)n2)c1 (stereo not drawn)
**Result** NOT MET

**Query** # TODO verify RP-LC retention time < 800 s strictly for this molecule: COc1ccc(OC)c(S(=O)(=O)N2CCCC(C)(C(=O)NCc3ccccc3)C2)c1 (stereo not drawn)
**Result** NOT MET

**Query** # TODO verify RP-LC retention time < 800 s strictly for this molecule: Cn1c(=O)c(N2CCC(NC(=O)Nc3ccc(F)cc3)CC2)nc2ccccc21
**Result** NOT MET

**Query** # TODO verify RP-LC retention time < 800 s strictly for this molecule: Cc1ccc(C(=O)Nc2ccc(N3CCN(c4ccccc4)C3=O)nc2)s1
**Result** NOT MET

**Query** # TODO verify RP-LC retention time < 800 s strictly for this molecule: Cc1ccccc1CNC(=O)C1CC(=O)N(c2ccc3c(c2)CCN3C(=O)C2CC2)C1 (stereo not drawn)
**Result** MET

**Query** # TODO verify RP-LC retention time < 800 s strictly for this molecule: CC(=O)Nc1ccc(C(=O)N2CCC3(CC2)N=C(c2ccc(Cl)cc2)NO3)cc1
**Result** MET

**Query** # TODO verify RP-LC retention time < 800 s strictly for this molecule: CCOc1cccc(C2c3[nH]c4ccccc4c3CCN2C(=O)c2cccs2)c1 (stereo not drawn)
**Result** NOT MET

**Query** # TODO verify RP-LC retention time < 800 s strictly for this molecule: O=C(NCCc1c[nH]c2ccccc12)c1cc(-c2ccc(F)cc2)c[nH]1
**Result** NOT MET

**Query** # TODO verify RP-LC retention time < 800 s strictly for this molecule: COc1ccc(C(=O)NC2c3ccccc3-c3ccccc32)cc1OC
**Result** NOT MET

**Query** # TODO verify RP-LC retention time < 800 s strictly for this molecule: CCn1c(CCNC(=O)c2ccc(F)c(F)c2)nc2cccnc21
**Result** MET

**Query** # TODO verify RP-LC retention time < 800 s strictly for this molecule: Cc1nc(-c2ccccc2)cc2nn(CC(=O)Nc3ccccc3Cl)c(=O)n12
**Result** NOT MET

**Query** # TODO verify RP-LC retention time < 800 s strictly for this molecule: CCOc1nccnc1NC1CCN(C(=O)Cc2cccs2)CC1
**Result** MET

**Query** # TODO verify RP-LC retention time < 800 s strictly for this molecule: CC1CCN(c2nccnc2Oc2ccc(C(=O)NCc3ccco3)cc2)CC1
**Result** NOT MET

**Query** # TODO verify RP-LC retention time < 800 s strictly for this molecule: COc1ccc(NC(=O)Cn2nc(N3CCC(C)CC3)c3ccccc3c2=O)c(OC)c1
**Result** NOT MET

**Query** # TODO verify RP-LC retention time < 800 s strictly for this molecule: CCC(=O)N(C1CCOCC1)C1CCN(S(=O)(=O)c2ccc(C)cc2C)CC1
**Result** NOT MET

**Query** # TODO verify RP-LC retention time < 800 s strictly for this molecule: Cc1noc(C)c1S(=O)(=O)NCCc1noc(-c2ccccc2)n1
**Result** NOT MET

**Query** # TODO verify RP-LC retention time < 800 s strictly for this molecule: CCCCC(=O)N(Cc1ccc(-c2ccccc2-c2nn[nH]n2)cc1)[C@H](C(=O)O)C(C)C
**Result** NOT MET

**Query** # TODO verify RP-LC retention time < 800 s strictly for this molecule: CC(C)OCCCNC(=O)C1CCCN(S(=O)(=O)c2ccc3c(ccn3C)c2)C1 (stereo not drawn)
**Result** MET

**Query** # TODO verify RP-LC retention time < 800 s strictly for this molecule: Cc1c(S(=O)(=O)N2CCCCC2)c(C)n(C)c1-c1nnc(C2CCC2)o1
**Result** NOT MET

**Query** # TODO verify RP-LC retention time < 800 s strictly for this molecule: O=C(NC1CC1)C1CCN(c2ncccc2-c2nc(-c3ccc(Cl)cc3)no2)CC1
**Result** NOT MET

**Query** # TODO verify RP-LC retention time < 800 s strictly for this molecule: Cc1ccc(Cl)cc1NC(=O)C1CCCN(c2nc3ccccc3nc2C(F)(F)F)C1 (stereo not drawn)
**Result** NOT MET

**Query** # TODO verify RP-LC retention time < 800 s strictly for this molecule: COCCNC(=O)Cc1csc(SCC(=O)c2cccs2)n1
**Result** MET

**Query** # TODO verify RP-LC retention time < 800 s strictly for this molecule: COc1ccc(-n2c(=O)c(C(=O)NCc3cc(F)cc(F)c3)c(O)c3cccnc32)cc1
**Result** NOT MET

**Query** # TODO verify RP-LC retention time < 800 s strictly for this molecule: Cc1cccc(C)c1NC(=O)C1CCN(S(C)(=O)=O)c2cc(Cl)ccc2O1 (stereo not drawn)
**Result** NOT MET

**Query** # TODO verify RP-LC retention time < 800 s strictly for this molecule: CCn1c(=O)c(C)nc2cc(-c3noc(/C=C/c4ccc(OC)cc4)n3)ccc21
**Result** NOT MET

**Query** # TODO verify RP-LC retention time < 800 s strictly for this molecule: CCOC(=O)c1cnn(-c2ccc(Cl)nn2)c1C
**Result** NOT MET

**Query** # TODO verify RP-LC retention time < 800 s strictly for this molecule: CC(C)(C)N(C(=O)c1ccccc1[N+](=O)[O-])C(=O)N1CCCCC1
**Result** NOT MET

**Query** # TODO verify RP-LC retention time < 800 s strictly for this molecule: Cc1ccc(N2CC(C(=O)N3CCCC3c3nc(-c4cccc(C)c4)no3)CC2=O)cc1 (stereo not drawn)
**Result** NOT MET

**Query** # TODO verify RP-LC retention time < 800 s strictly for this molecule: CCOC(=O)c1nc(Nc2ccc(OC(C)C)cc2)c2ccccc2n1
**Result** NOT MET

**Query** # TODO verify RP-LC retention time < 800 s strictly for this molecule: CCc1cc(C(=O)N2CCOCC2)nc2cc(-c3cccs3)nn12
**Result** NOT MET

**Query** # TODO verify RP-LC retention time < 800 s strictly for this molecule: CN1CCN(c2ncncc2N2CCC(C(=O)N3CCCCC3)CC2)CC1
**Result** MET
